These entries and their values trace back to ChEMBL document CHEMBL1128763.

Target: Endothelin-1 receptor (Sus scrofa)
Sequence (Q29010 whole entry): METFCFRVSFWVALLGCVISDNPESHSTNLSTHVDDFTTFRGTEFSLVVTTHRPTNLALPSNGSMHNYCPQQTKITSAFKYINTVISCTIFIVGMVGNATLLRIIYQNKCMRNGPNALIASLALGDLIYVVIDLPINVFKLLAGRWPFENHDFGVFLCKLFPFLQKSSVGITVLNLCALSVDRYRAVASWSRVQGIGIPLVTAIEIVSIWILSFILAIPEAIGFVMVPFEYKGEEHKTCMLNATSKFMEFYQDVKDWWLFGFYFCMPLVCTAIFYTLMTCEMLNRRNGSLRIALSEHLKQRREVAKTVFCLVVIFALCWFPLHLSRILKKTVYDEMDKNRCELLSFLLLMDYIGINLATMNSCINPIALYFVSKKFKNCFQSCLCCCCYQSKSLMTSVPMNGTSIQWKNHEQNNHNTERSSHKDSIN
Each entry below carries its reported IC50.
recorded.metric: IC50 (µM)

molecule	target	recorded.metric	numeric.readout
CC(C)C[C@@H]1NC(=O)[C@@H](C(C)C)NC(=O)C2CCCN2C(=O)[C@@H](CC(=O)O)NC(=O)[C@@H](Cc2c[nH]c3ccccc23)NC1=O (single isomer, unassigned)	Endothelin-1 receptor (Sus scrofa)	IC50	0.022
CCCC[C@@H](NC(=O)[C@@H](Cc1cn(C(=O)OC)c2ccccc12)NC(=O)[C@H](CC(C)(C)C)NC(=O)N1[C@H](C)CCC[C@@H]1C)C(=O)O	Endothelin-1 receptor (Sus scrofa)	IC50	0.28

* * *

molecular target: Endothelin receptor type B (Sus scrofa); test: Inhibitory activity against 125 I-labeled ET-1 binding to Endothelin B receptor in porcine cerebellum membranes
Sequence (P35463 whole entry): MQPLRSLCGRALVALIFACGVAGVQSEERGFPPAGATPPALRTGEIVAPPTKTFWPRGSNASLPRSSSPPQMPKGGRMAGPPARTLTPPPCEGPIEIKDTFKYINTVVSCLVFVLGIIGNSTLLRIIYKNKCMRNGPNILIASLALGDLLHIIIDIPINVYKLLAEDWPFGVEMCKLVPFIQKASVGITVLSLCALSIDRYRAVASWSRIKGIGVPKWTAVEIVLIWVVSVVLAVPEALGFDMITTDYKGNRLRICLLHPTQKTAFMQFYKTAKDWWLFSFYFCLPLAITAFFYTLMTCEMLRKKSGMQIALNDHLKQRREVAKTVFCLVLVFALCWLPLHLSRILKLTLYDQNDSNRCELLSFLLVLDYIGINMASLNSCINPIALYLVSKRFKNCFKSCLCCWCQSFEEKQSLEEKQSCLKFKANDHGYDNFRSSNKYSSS
pIC50: −log10 of the molar value.
recorded.metric: pIC50

> print(dat)
                    structure.smiles.string  recorded.metric  numeric.readout
1  CCCC[C@@H](NC(=O)[C@@H](Cc1cn(C(=O)OC)c2ccccc12)NC(=O)[C@H](CC(C)(C)C)NC(=O)N1[C@H](C)CCC[C@@H]1C)C(=O)O            pIC50             8.92
